Cmax by entry:
test.method.notes: Multiple component PK study in rat plasma after p.o. GDDP (HPLC-MS)
assay.context: Sprague-Dawley, rat, plasma, po, 0.8 g/kg, Cmax, rat plasma, GDDP 0.8 g/kg p.o. (High dose group), n=3
Use ng/mL as the unit, but write only the number.

// known answers, use as guide
CC(C)=CCC[C@](C)(O[C@@H]1O[C@H](CO)[C@@H](O)[C@H](O)[C@H]1O)[C@H]1CC[C@]2(C)[C@@H]1[C@H](O)C[C@@H]1[C@@]3(C)CC[C@H](O[C@@H]4O[C@H](CO)[C@@H](O)[C@H](O)[C@H]4O[C@@H]4O[C@H](CO)[C@@H](O)[C@H](O)[C@H]4O)C(C)(C)[C@@H]3CC[C@]12C [Rd, ginsenoside Rd]    37.2
Cc1coc2c1C(=O)C(=O)c1c-2ccc2c(C)cccc12 [TS I, tanshinone I]    8.59

Recorded Cmax of Cc1cccc2c3c(ccc12)C1=C(C(=O)C3=O)[C@@H](C)CO1 [DHTS I, dihydrotanshinone I] , please.
3.1

// same read-out, input: CC(C)=CCC[C@](C)(O[C@@H]1O[C@H](CO[C@@H]2O[C@H](CO)[C@@H](O)[C@H](O)[C@H]2O)[C@@H](O)[C@H](O)[C@H]1O)[C@H]1CC[C@]2(C)[C@@H]1[C@H](O)C[C@@H]1[C@@]3(C)CC[C@H](O[C@@H]4O[C@H](CO)[C@@H](O)[C@H](O)[C@H]4O[C@@H]4O[C@H](CO)[C@@H](O)[C@H](O)[C@H]4O)C(C)(C)[C@@H]3CC[C@]12C [Rb1, ginsenoside Rb1]
80.3

----------
test.method.notes: Stability tests in rat plasma (QC samples, HPLC-MS)
assay.context: 24h in auto-sampler vials, spiked 1600 ng/mL, n=5
Stability: Measured by entry:
Use ng/mL as the unit, but write only the number.

// known answers, use as guide
CC(C)=CCC[C@](C)(O[C@@H]1O[C@H](CO[C@@H]2O[C@H](CO)[C@@H](O)[C@H](O)[C@H]2O)[C@@H](O)[C@H](O)[C@H]1O)[C@H]1CC[C@]2(C)[C@@H]1[C@H](O)C[C@@H]1[C@@]3(C)CC[C@H](O[C@@H]4O[C@H](CO)[C@@H](O)[C@H](O)[C@H]4O[C@@H]4O[C@H](CO)[C@@H](O)[C@H](O)[C@H]4O)C(C)(C)[C@@H]3CC[C@]12C [Rb1, ginsenoside Rb1]    1540.64
CC(C)=CCC[C@](C)(O[C@@H]1O[C@H](CO)[C@@H](O)[C@H](O)[C@H]1O)[C@H]1CC[C@]2(C)[C@@H]1[C@H](O)C[C@@H]1[C@@]3(C)CC[C@H](O)C(C)(C)[C@@H]3[C@@H](O[C@@H]3O[C@H](CO)[C@@H](O)[C@H](O)[C@H]3O[C@@H]3OC[C@@H](O)[C@H](O)[C@H]3O)C[C@]12C [R1, notoginsenoside R1]    1619.10
Cc1coc2c1C(=O)C(=O)c1c-2ccc2c1CCCC2(C)C    1714.76

We next turn to a different compound, shown below.
Recorded Stability: Measured of "Cc1coc2c1C(=O)C(=O)c1c-2ccc2c(C)cccc12" , please.
1562.58

----------
test.method.notes: Stability tests in rat plasma (QC samples, HPLC-MS)
assay.context: three freeze-thaw cycles, rat plasma, spiked 1600 ng/mL, n=5
measure.name: Stability: RE (%)
Use % as the unit, but write only the number.

// known answers, use as guide
CC(C)=CCC[C@](C)(O[C@@H]1O[C@H](CO)[C@@H](O)[C@H](O)[C@H]1O)[C@H]1CC[C@]2(C)[C@@H]1[C@H](O)C[C@@H]1[C@@]3(C)CC[C@H](O[C@@H]4O[C@H](CO)[C@@H](O)[C@H](O)[C@H]4O[C@@H]4O[C@H](CO)[C@@H](O)[C@H](O)[C@H]4O)C(C)(C)[C@@H]3CC[C@]12C [Rd, ginsenoside Rd]    10.54
Cc1cccc2c3c(ccc12)C1=C(C(=O)C3=O)[C@@H](C)CO1 [DHTS I, dihydrotanshinone I]    0.88

Recorded Stability: RE of "Cc1coc2c1C(=O)C(=O)c1c-2ccc2c(C)cccc12" , please.
-7.32

----------
test.method.notes: Multiple component PK study in rat plasma after p.o. GDDP (HPLC-MS)
assay.context: Sprague-Dawley, rat, plasma, po, 0.8 g/kg, Cmax (high / low plasma drug concentrations), rats, GDDP 0.4 and 0.8 g/kg p.o.; classification
Cmax by entry:

Recorded Cmax of CC(C)=CCC[C@](C)(O[C@@H]1O[C@H](CO[C@@H]2O[C@H](CO)[C@@H](O)[C@H](O)[C@H]2O)[C@@H](O)[C@H](O)[C@H]1O)[C@H]1CC[C@]2(C)[C@@H]1[C@H](O)C[C@@H]1[C@@]3(C)CC[C@H](O[C@@H]4O[C@H](CO)[C@@H](O)[C@H](O)[C@H]4O[C@@H]4O[C@H](CO)[C@@H](O)[C@H](O)[C@H]4O)C(C)(C)[C@@H]3CC[C@]12C [Rb1, ginsenoside Rb1] , please.
> 20 ng/mL

----------
test.method.notes: Multiple component PK study in rat plasma after p.o. GDDP (HPLC-MS)
assay.context: Sprague-Dawley, rat, plasma, po, 0.8 g/kg, t1/2 β, rat plasma, GDDP 0.8 g/kg p.o. (High dose group), n=3
half-life by entry:

// known answers, use as guide
Cc1coc2c1C(=O)C(=O)c1c-2ccc2c(C)cccc12    11.7 h
CC(C)=CCC[C@](C)(O[C@@H]1O[C@H](CO)[C@@H](O)[C@H](O)[C@H]1O)[C@H]1CC[C@]2(C)[C@@H]1[C@H](O)C[C@@H]1[C@@]3(C)CC[C@H](O)C(C)(C)[C@@H]3[C@@H](O[C@@H]3O[C@H](CO)[C@@H](O)[C@H](O)[C@H]3O[C@@H]3OC[C@@H](O)[C@H](O)[C@H]3O)C[C@]12C [R1, notoginsenoside R1]    0.45 h
CC(C)=CCC[C@](C)(O[C@@H]1O[C@H](CO)[C@@H](O)[C@H](O)[C@H]1O)[C@H]1CC[C@]2(C)[C@@H]1[C@H](O)C[C@@H]1[C@@]3(C)CC[C@H](O[C@@H]4O[C@H](CO)[C@@H](O)[C@H](O)[C@H]4O[C@@H]4O[C@H](CO)[C@@H](O)[C@H](O)[C@H]4O)C(C)(C)[C@@H]3CC[C@]12C [Rd, ginsenoside Rd]    8.53 h
Cc1coc2c1C(=O)C(=O)c1c-2ccc2c1CCCC2(C)C    18.3 h
C[C@H]1COC2=C1C(=O)C(=O)c1c2ccc2c1CCCC2(C)C    0.57 h

Recorded half-life of CC(C)=CCC[C@](C)(O[C@@H]1O[C@H](CO[C@@H]2O[C@H](CO)[C@@H](O)[C@H](O)[C@H]2O)[C@@H](O)[C@H](O)[C@H]1O)[C@H]1CC[C@]2(C)[C@@H]1[C@H](O)C[C@@H]1[C@@]3(C)CC[C@H](O[C@@H]4O[C@H](CO)[C@@H](O)[C@H](O)[C@H]4O[C@@H]4O[C@H](CO)[C@@H](O)[C@H](O)[C@H]4O)C(C)(C)[C@@H]3CC[C@]12C [Rb1, ginsenoside Rb1] , please.
10.8 h

// same read-out, input: Cc1cccc2c3c(ccc12)C1=C(C(=O)C3=O)[C@@H](C)CO1 [DHTS I, dihydrotanshinone I]
5.57 h

----------
test.method.notes: Multiple component PK study in rat plasma after p.o. GDDP (HPLC-MS)
assay.context: Sprague-Dawley, rat, plasma, po, 0.4 g/kg, t1/2 β, rat plasma, GDDP 0.4 g/kg p.o. (Low dose group), n=3
measure.name: half-life

// known answers, use as guide
CC(C)=CCC[C@](C)(O[C@@H]1O[C@H](CO)[C@@H](O)[C@H](O)[C@H]1O)[C@H]1CC[C@]2(C)[C@@H]1[C@H](O)C[C@@H]1[C@@]3(C)CC[C@H](O[C@@H]4O[C@H](CO)[C@@H](O)[C@H](O)[C@H]4O[C@@H]4O[C@H](CO)[C@@H](O)[C@H](O)[C@H]4O)C(C)(C)[C@@H]3CC[C@]12C [Rd, ginsenoside Rd]    5.63 h
Cc1coc2c1C(=O)C(=O)c1c-2ccc2c(C)cccc12 [TS I, tanshinone I]    16.4 h
CC(C)=CCC[C@](C)(O[C@@H]1O[C@H](CO)[C@@H](O)[C@H](O)[C@H]1O)[C@H]1CC[C@]2(C)[C@@H]1[C@H](O)C[C@@H]1[C@@]3(C)CC[C@H](O)C(C)(C)[C@@H]3[C@@H](O[C@@H]3O[C@H](CO)[C@@H](O)[C@H](O)[C@H]3O[C@@H]3OC[C@@H](O)[C@H](O)[C@H]3O)C[C@]12C [R1, notoginsenoside R1]    0.57 h
C[C@H]1COC2=C1C(=O)C(=O)c1c2ccc2c1CCCC2(C)C [CTS, cryptotanshinone]    0.45 h

Recorded half-life of CC(C)=CCC[C@](C)(O[C@@H]1O[C@H](CO[C@@H]2O[C@H](CO)[C@@H](O)[C@H](O)[C@H]2O)[C@@H](O)[C@H](O)[C@H]1O)[C@H]1CC[C@]2(C)[C@@H]1[C@H](O)C[C@@H]1[C@@]3(C)CC[C@H](O[C@@H]4O[C@H](CO)[C@@H](O)[C@H](O)[C@H]4O[C@@H]4O[C@H](CO)[C@@H](O)[C@H](O)[C@H]4O)C(C)(C)[C@@H]3CC[C@]12C [Rb1, ginsenoside Rb1] , please.
22.9 h

// same read-out, input: Cc1cccc2c3c(ccc12)C1=C(C(=O)C3=O)[C@@H](C)CO1 [DHTS I, dihydrotanshinone I]
2.68 h
